- Target or test system: EPHB2 (UniProt P29323)
- Sequence (P29323 whole entry, looked up): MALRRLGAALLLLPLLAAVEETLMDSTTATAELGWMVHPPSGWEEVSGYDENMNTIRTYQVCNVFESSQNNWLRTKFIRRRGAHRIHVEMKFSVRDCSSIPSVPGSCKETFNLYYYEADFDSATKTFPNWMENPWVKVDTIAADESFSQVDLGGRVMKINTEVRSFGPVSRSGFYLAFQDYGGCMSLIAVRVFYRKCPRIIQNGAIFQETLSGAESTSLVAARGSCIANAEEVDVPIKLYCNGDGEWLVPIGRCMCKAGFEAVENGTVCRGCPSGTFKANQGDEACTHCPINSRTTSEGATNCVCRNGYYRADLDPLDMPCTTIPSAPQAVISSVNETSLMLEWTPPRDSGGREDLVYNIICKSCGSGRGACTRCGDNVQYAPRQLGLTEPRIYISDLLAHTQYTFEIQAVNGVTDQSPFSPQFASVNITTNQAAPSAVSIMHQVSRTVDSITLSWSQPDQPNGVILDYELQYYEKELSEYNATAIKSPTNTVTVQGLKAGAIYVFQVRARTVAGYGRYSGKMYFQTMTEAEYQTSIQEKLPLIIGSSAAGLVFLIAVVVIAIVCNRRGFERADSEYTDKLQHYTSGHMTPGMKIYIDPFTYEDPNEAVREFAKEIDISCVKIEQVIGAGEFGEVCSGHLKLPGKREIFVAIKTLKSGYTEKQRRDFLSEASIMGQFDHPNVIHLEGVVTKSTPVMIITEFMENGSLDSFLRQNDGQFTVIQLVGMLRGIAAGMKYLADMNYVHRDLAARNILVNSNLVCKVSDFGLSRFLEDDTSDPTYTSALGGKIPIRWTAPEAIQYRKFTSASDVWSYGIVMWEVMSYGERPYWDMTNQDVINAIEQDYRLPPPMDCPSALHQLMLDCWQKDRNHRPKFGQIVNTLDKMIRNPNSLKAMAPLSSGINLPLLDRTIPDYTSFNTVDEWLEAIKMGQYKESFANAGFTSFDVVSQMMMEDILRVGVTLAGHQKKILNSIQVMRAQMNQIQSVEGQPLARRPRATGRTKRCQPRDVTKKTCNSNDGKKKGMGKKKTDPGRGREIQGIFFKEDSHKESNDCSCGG
- Assay comment: phosphorylation enrichment, bacterial display (enrichment ratio); higher = better substrate or ligand; peptides without Tyr show the background;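 note: 11-residue human phosphosite peptides and single-mutation variants displayed on the E. coli surface, counted by deep sequencing, each peptide's frequency after selection divided by its frequency in the unselected input library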;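 note: frequency after pTyr selection over input frequency; kinase dosed for 20-30% of maximal phosphorylation in three min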
phosphorylation enrichment by entry:

>  <Entry sequence>
WGLCSYYETSK [MAGED2_Y448_R446C]

>  <Target or test system>
EPHB2 (UniProt P29323)

>  <phosphorylation enrichment>
0.73

$$$$
>  <Entry sequence>
SPPILYSFYLN [FCRL6_Y239_D244N]

>  <Target or test system>
EPHB2 (UniProt P29323)

>  <phosphorylation enrichment>
4.36

$$$$
>  <Entry sequence>
KIDAKYKKKIK [WDR19_Y1230_E1235K]

>  <Target or test system>
EPHB2 (UniProt P29323)

>  <phosphorylation enrichment>
0.319

$$$$
>  <Entry sequence>
LEIETYRRLLD [KRT12_Y429]

>  <Target or test system>
EPHB2 (UniProt P29323)

>  <phosphorylation enrichment>
0.549

$$$$
>  <Entry sequence>
HSLHDYKEALM [ADA2_Y337]

>  <Target or test system>
EPHB2 (UniProt P29323)

>  <phosphorylation enrichment>
0.448

$$$$
>  <Entry sequence>
GRSTCYWPRPR [GAGE12J_Y10_Y9C]

>  <Target or test system>
EPHB2 (UniProt P29323)

>  <phosphorylation enrichment>
0.512

$$$$
>  <Entry sequence>
PEPHIYAVADV [MYO9A_Y216_L211P]

>  <Target or test system>
EPHB2 (UniProt P29323)

>  <phosphorylation enrichment>
2.18

$$$$
>  <Entry sequence>
IDSTPYRQWFE [RPS8_Y109_YF]

>  <Target or test system>
EPHB2 (UniProt P29323)

>  <phosphorylation enrichment>
0.464

$$$$
>  <Entry sequence>
CPYNLYAAQLS [HGD_Y40_E42A]

>  <Target or test system>
EPHB2 (UniProt P29323)

>  <phosphorylation enrichment>
4.3

$$$$
>  <Entry sequence>
IVKAFYVRARA [AIPL1_Y268_YF]

>  <Target or test system>
EPHB2 (UniProt P29323)

>  <phosphorylation enrichment>
0.588

$$$$
>  <Entry sequence>
RELGEYGLQAY [ALDH2_Y497]

>  <Target or test system>
EPHB2 (UniProt P29323)

>  <phosphorylation enrichment>
0.754

$$$$
>  <Entry sequence>
MGIMLYGVDSR [PKD1_Y3143_V3138M]

>  <Target or test system>
EPHB2 (UniProt P29323)

>  <phosphorylation enrichment>
0.576

$$$$
>  <Entry sequence>
LHRHAYPEQQQ [DPPA2_Y127_R131Q]

>  <Target or test system>
EPHB2 (UniProt P29323)

>  <phosphorylation enrichment>
0.811

$$$$
>  <Entry sequence>
SQSAKYDMAED [TTC21B_Y1213_I1208S]

>  <Target or test system>
EPHB2 (UniProt P29323)

>  <phosphorylation enrichment>
0.635

$$$$
>  <Entry sequence>
YTFTSYYMHWV [IGHV1-46_Y51]

>  <Target or test system>
EPHB2 (UniProt P29323)

>  <phosphorylation enrichment>
1.27

$$$$
>  <Entry sequence>
FLQTDDTSQVS [FRMPD1_Y846_Y846D]

>  <Target or test system>
EPHB2 (UniProt P29323)

>  <phosphorylation enrichment>
0.648

$$$$
>  <Entry sequence>
KPNMNYDKLSR [FLI1_Y332]

>  <Target or test system>
EPHB2 (UniProt P29323)

>  <phosphorylation enrichment>
0.541

$$$$
>  <Entry sequence>
FGLDRYQCDCT [PTGS1_Y54]

>  <Target or test system>
EPHB2 (UniProt P29323)

>  <phosphorylation enrichment>
0.613

$$$$
>  <Entry sequence>
IFGVSYGEYRY [CFTR_Y512_D513G]

>  <Target or test system>
EPHB2 (UniProt P29323)

>  <phosphorylation enrichment>
0.691

$$$$
>  <Entry sequence>
TRSFDYMEGED [FGF7_Y58_G62E_YF]

>  <Target or test system>
EPHB2 (UniProt P29323)

>  <phosphorylation enrichment>
1.04

$$$$
>  <Entry sequence>
APTSGYQEFVH [IL4R_Y575]

>  <Target or test system>
EPHB2 (UniProt P29323)

>  <phosphorylation enrichment>
0.535

$$$$
>  <Entry sequence>
VNNAVYGIDAM [EIF3J_Y143]

>  <Target or test system>
EPHB2 (UniProt P29323)

>  <phosphorylation enrichment>
0.437

$$$$
>  <Entry sequence>
LGLDEYLDKLK [FMNL2_Y352]

>  <Target or test system>
EPHB2 (UniProt P29323)

>  <phosphorylation enrichment>
0.816

$$$$
>  <Entry sequence>
TDIVAYSGWVQ [SPTBN2_Y477_R480W]

>  <Target or test system>
EPHB2 (UniProt P29323)

>  <phosphorylation enrichment>
0.532

$$$$
>  <Entry sequence>
AVRVFYRKCPH [EPHB2_Y194_R199H]

>  <Target or test system>
EPHB2 (UniProt P29323)

>  <phosphorylation enrichment>
0.711

$$$$
>  <Entry sequence>
VMIYAYLLHRG [PTEN_Y138_C136Y]

>  <Target or test system>
EPHB2 (UniProt P29323)

>  <phosphorylation enrichment>
0.455

$$$$
>  <Entry sequence>
HFMELYDLNRD [BBS2_Y648_R643H_YF]

>  <Target or test system>
EPHB2 (UniProt P29323)

>  <phosphorylation enrichment>
0.594

$$$$
>  <Entry sequence>
HDRNTYEKYLE [TF_Y666_G671E]

>  <Target or test system>
EPHB2 (UniProt P29323)

>  <phosphorylation enrichment>
0.595

$$$$
>  <Entry sequence>
KLQKKYGPISS [CYP17A1_Y60_Y64S]

>  <Target or test system>
EPHB2 (UniProt P29323)

>  <phosphorylation enrichment>
0.317

$$$$
>  <Entry sequence>
LAETSYVKVLE [MAGEA1_Y276]

>  <Target or test system>
EPHB2 (UniProt P29323)

>  <phosphorylation enrichment>
0.471

$$$$
>  <Entry sequence>
NMHSTYAKLAA [SEC22B_Y193]

>  <Target or test system>
EPHB2 (UniProt P29323)

>  <phosphorylation enrichment>
0.451

$$$$
>  <Entry sequence>
GASWRYRSGVS [NEU1_Y242_G243R]

>  <Target or test system>
EPHB2 (UniProt P29323)

>  <phosphorylation enrichment>
0.608

$$$$
>  <Entry sequence>
ELTSVYGSRAR [SENP1_Y349_D350G]

>  <Target or test system>
EPHB2 (UniProt P29323)

>  <phosphorylation enrichment>
0.42

$$$$
>  <Entry sequence>
SVICTYSPALN [TP53_Y126_T123I]

>  <Target or test system>
EPHB2 (UniProt P29323)

>  <phosphorylation enrichment>
0.673

$$$$
>  <Entry sequence>
DSNPIYSQIWS [FCRL3_Y662]

>  <Target or test system>
EPHB2 (UniProt P29323)

>  <phosphorylation enrichment>
21.2

$$$$
>  <Entry sequence>
SDVSSYLEGQA [GCG_Y110]

>  <Target or test system>
EPHB2 (UniProt P29323)

>  <phosphorylation enrichment>
0.76

$$$$
>  <Entry sequence>
SDVCMYRKNTF [SYNE2_Y570_I574T_YF]

>  <Target or test system>
EPHB2 (UniProt P29323)

>  <phosphorylation enrichment>
0.534

$$$$
>  <Entry sequence>
RHRSGYVLIAM [EFR3A_Y73]

>  <Target or test system>
EPHB2 (UniProt P29323)

>  <phosphorylation enrichment>
0.708

$$$$
>  <Entry sequence>
AEEKEYHAEGG [EGFR_Y869]

>  <Target or test system>
EPHB2 (UniProt P29323)

>  <phosphorylation enrichment>
0.593

$$$$
>  <Entry sequence>
LSVMSYDLGMF [GBA3_Y174]

>  <Target or test system>
EPHB2 (UniProt P29323)

>  <phosphorylation enrichment>
0.707

$$$$
>  <Entry sequence>
CTTNHYNFMCN [TP53_Y234_I232N_YF]

>  <Target or test system>
EPHB2 (UniProt P29323)

>  <phosphorylation enrichment>
0.544

$$$$
>  <Entry sequence>
SSLEDYVRETN [GIMAP6_Y176_G171S]

>  <Target or test system>
EPHB2 (UniProt P29323)

>  <phosphorylation enrichment>
0.527

$$$$
>  <Entry sequence>
FNNPAYYVLEG [INPPL1_Y986]

>  <Target or test system>
EPHB2 (UniProt P29323)

>  <phosphorylation enrichment>
0.704

$$$$
>  <Entry sequence>
LDAFIYDAALL [GRIN2A_Y730_V734L]

>  <Target or test system>
EPHB2 (UniProt P29323)

>  <phosphorylation enrichment>
2.32

$$$$
>  <Entry sequence>
YNDSTYNQQLI [ZPLD1_Y198]

>  <Target or test system>
EPHB2 (UniProt P29323)

>  <phosphorylation enrichment>
0.465

$$$$
>  <Entry sequence>
KPIETYFSKNF [PLP1_Y50_L46P_YF]

>  <Target or test system>
EPHB2 (UniProt P29323)

>  <phosphorylation enrichment>
0.497

$$$$
>  <Entry sequence>
RRSKMYLKTRS [LPL_Y329_S325R]

>  <Target or test system>
EPHB2 (UniProt P29323)

>  <phosphorylation enrichment>
0.845

$$$$
>  <Entry sequence>
LEAVSYSSRFA [RNLS_Y190_YF]

>  <Target or test system>
EPHB2 (UniProt P29323)

>  <phosphorylation enrichment>
0.359

$$$$
>  <Entry sequence>
GVPLGYPIKAS [ELN_Y206_P211S]

>  <Target or test system>
EPHB2 (UniProt P29323)

>  <phosphorylation enrichment>
0.333

$$$$
>  <Entry sequence>
ADLAKYICENQ [ALB_Y287]

>  <Target or test system>
EPHB2 (UniProt P29323)

>  <phosphorylation enrichment>
0.63

$$$$
>  <Entry sequence>
RENGPYYASYP [GDAP2_Y487_T489A]

>  <Target or test system>
EPHB2 (UniProt P29323)

>  <phosphorylation enrichment>
5.74

$$$$
>  <Entry sequence>
MSSLPYMKVIF [SLC4A11_Y853_M856V]

>  <Target or test system>
EPHB2 (UniProt P29323)

>  <phosphorylation enrichment>
0.541

$$$$
>  <Entry sequence>
RAFSWYQHQRA [NDST1_Y714_YF]

>  <Target or test system>
EPHB2 (UniProt P29323)

>  <phosphorylation enrichment>
0.855

$$$$
>  <Entry sequence>
KIIATYRLCSE [DNAH3_Y1586_V1583I]

>  <Target or test system>
EPHB2 (UniProt P29323)

>  <phosphorylation enrichment>
0.51

$$$$
>  <Entry sequence>
QSLEPYTKQQL [STAT3_Y640_V637L]

>  <Target or test system>
EPHB2 (UniProt P29323)

>  <phosphorylation enrichment>
0.371

$$$$
>  <Entry sequence>
NDFGNYSNQSS [HNRNPA1_Y318_N319S]

>  <Target or test system>
EPHB2 (UniProt P29323)

>  <phosphorylation enrichment>
1.92

$$$$
>  <Entry sequence>
LFLACYFIGGG [UBD_Y161_C162F]

>  <Target or test system>
EPHB2 (UniProt P29323)

>  <phosphorylation enrichment>
0.612

$$$$
>  <Entry sequence>
GLGGGYGGASG [KRT8_Y54]

>  <Target or test system>
EPHB2 (UniProt P29323)

>  <phosphorylation enrichment>
0.359

$$$$
